experiment_notes: total protein half-life in vivo (active degradation + dilution); higher = more stable protein
cond: E. coli NCM3722 delta-lon; growth: N-lim chemostat; doubling time 6 h

- seq_text: "MIKKIGVLTSGGDAPGMNAAIRGVVRSALTEGLEVMGIYDGYLGLYEDRMVQLDRYSVSDMINRGGTFLGSARFPEFRDENIRAVAIENLKKRGIDALVVIGGDGSYMGAMRLTEMGFPCIGLPGTIDNDIKGTDYTIGFFTALSTVVEAIDRLRDTSSSHQRISVVEVMGRYCGDLTLAAAIAGGCEFVVVPEVEFSREDLVNEIKAGIAKGKKHAIVAITEHMCDVDELAHFIEKETGRETRATVLGHIQRGGSPVPYDRILASRMGAYAIDLLLAGYGGRCVGIQNEQLVHHDIIDAIENMKRPFKGDWLDCAKKLY [P0A796]"
  total protein half-life in vivo / h: 4.15
- seq_text: "MNNRVHQGHLARKRFGQNFLNDQFVIDSIVSAINPQKGQAMVEIGPGLAALTEPVGERLDQLTVIELDRDLAARLQTHPFLGPKLTIYQQDAMTFNFGELAEKMGQPLRVFGNLPYNISTPLMFHLFSYTDAIADMHFMLQKEVVNRLVAGPNSKAYGRLSVMAQYYCNVIPVLEVPPSAFTPPPKVDSAVVRLVPHATMPHPVKDVRVLSRITTEAFNQRRKTIRNSLGNLFSVEVLTGMGIDPAMRAENISVAQYCQMANYLAENAPLQES"
  total protein half-life in vivo / h: 5.84
- seq_text: "MKSVLKVSLAALTLAFAVSSHAADKKLVVATDTAFVPFEFKQGDKYVGFDVDLWAAIAKELKLDYELKPMDFSGIIPALQTKNVDLALAGITITDERKKAIDFSDGYYKSGLLVMVKANNNDVKSVKDLDGKVVAVKSGTGSVDYAKANIKTKDLRQFPNIDNAYMELGTNRADAVLHDTPNILYFIKTAGNGQFKAVGDSLEAQQYGIAFPKGSDELRDKVNGALKTLRENGTYNEIYKKWFGTEPK [P0AEQ3]"
  total protein half-life in vivo / h: 6.82
- seq_text: "MSRPLLQLALDHSSLEAAQRDVTLLKDSVDIVEAGTILCLNEGLGAVKALREQCPDKIIVADWKVADAGETLAQQAFGAGANWMTIICAAPLATVEKGHAMAQRCGGEIQIELFGNWTLDDARDWHRIGVRQAIYHRGRDAQASGQQWGEADLARMKALSDIGLELSITGGITPADLPLFKDIRVKAFIAGRALAGAANPAQVAGDFHAQIDAIWGGARA"
  total protein half-life in vivo / h: 4.77
- seq_text: "MPLLKLWAGSLVMLAAVSLPLQAASPVKVGSKIDTEGALLGNIILQVLESHGVPTVNKVQLGTTPVVRGAITSGELDIYPEYTGNGAFFFKDENDAAWKNAQQGYEKVKKLDSEHNKLIWLTPAPANNTWTIAVRQDVAEKNKLTSLADLSRYLQEGGTFKLAASAEFIERADALPAFEKAYGFKLGQDQLLSLAGGDTAVTIKAAAQQTSGVNAAMAYGTDGPVAALGLQTLSDPQGVQPIYAPAPVVRESVLREYPQMAQWLQPVFASLDAKTLQQLNASIAVEGLDAKKVAADYLKQKGWTK"
  total protein half-life in vivo / h: 7.16

###

Listed below: total protein half-life in vivo values for each entry.
experiment_notes: total protein half-life in vivo (active degradation + dilution); higher = more stable protein
cond: wild type E. coli NCM3722; growth: C-lim chemostat; doubling time 3 h

- seq_text: "MKKILLMLSLLFFTTAGFSEVSDTLVTGGYDKQAMSDAIKHARKETDKFIEVMNKKDADTFAVKAPITDHGRTEHFWLTDVTYSNGMFIGVISNDPGIVTNVEYGQEWKIKKEDISDWMYTRGDKIYGGYTIDPLLVTYPKEEADELRAKLVR"
  unit_of_measure: "h"
  total protein half-life in vivo: 2.2
- seq_text: "MANVEIYTKETCPYCHRAKALLSSKGVSFQELPIDGNAAKREEMIKRSGRTTVPQIFIDAQHIGGCDDLYALDARGGLDPLLK [P0AC62]"
  unit_of_measure: "h"
  total protein half-life in vivo: 2.89
- seq_text: "MNNHFKCIGIVGHPRHPTALTTHEMLYRWLCTKGYEVIVEQQIAHELQLKNVKTGTLAEIGQLADLAVVVGGDGNMLGAARTLARYDIKVIGINRGNLGFLTDLDPDNAQQQLADVLEGHYISEKRFLLEAQVCQQDCQKRISTAINEVVLHPGKVAHMIEFEVYIDEIFAFSQRSDGLIISTPTGSTAYSLSAGGPILTPSLDAITLVPMFPHTLSARPLVINSSSTIRLRFSHRRNDLEISCDSQIALPIQEGEDVLIRRCDYHLNLIHPKDYSYFNTLSTKLGWSKKLF [P0A7B3]"
  unit_of_measure: "h"
  total protein half-life in vivo: 3.19
- seq_text: "MIWKRKITLEALNAMGEGNMVGFLDIRFEHIGDDTLEATMPVDSRTKQPFGLLHGGASVVLAESIGSVAGYLCTEGEQKVVGLEINANHVRSAREGRVRGVCKPLHLGSRHQVWQIEIFDEKGRLCCSSRLTTAIL"
  unit_of_measure: "h"
  total protein half-life in vivo: 2.75

###

experiment_notes: total protein half-life in vivo (active degradation + dilution); higher = more stable protein
cond: wild type E. coli NCM3722; growth: C-lim chemostat; doubling time 6 h

- seq_text: "MENKYSRLQISIHWLVFLLVIAAYCAMEFRGFFPRSDRPLINMIHVSCGISILVLMVVRLLLRLKYPTPPIIPKPKPMMTGLAHLGHLVIYLLFIALPVIGLVMMYNRGNPWFAFGLTMPYASEANFERVDSLKSWHETLANLGYFVIGLHAAAALAHHYFWKDNTLLRMMPRKRS [P0ABE5]"
  unit_of_measure: "h"
  total protein half-life in vivo: 5.31
- seq_text: "MEKEQLIEIANTIMPFGKYKGRRLIDLPEEYLLWFARKDEFPAGKLGELMQITLLIKTEGLTQLVQPLKRPL [P0AD40]"
  unit_of_measure: "h"
  total protein half-life in vivo: 5.09
- seq_text: "MMKRNILAVIVPALLVAGTANAAEIYNKDGNKVDLYGKAVGLHYFSKGNGENSYGGNGDMTYARLGFKGETQINSDLTGYGQWEYNFQGNNSEGADAQTGNKTRLAFAGLKYADVGSFDYGRNYGVVYDALGYTDMLPEFGGDTAYSDDFFVGRVGGVATYRNSNFFGLVDGLNFAVQYLGKNERDTARRSNGDGVGGSISYEYEGFGIVGAYGAADRTNLQEAQPLGNGKKAEQWATGLKYDANNIYLAANYGETRNATPITNKFTNTSGFANKTQDVLLVAQYQFDFGLRPSIAYTKSKAKDVEGIGDVDLVNYFEVGATYYFNKNMSTYVDYIINQIDSDNKLGVGSDDTVAVGIVYQF"
  unit_of_measure: "h"
  total protein half-life in vivo: 6.83

###

experiment_notes: total protein half-life in vivo (active degradation + dilution); higher = more stable protein
cond: E. coli NCM3722 delta-clpP; growth: N-lim chemostat; doubling time 6 h
Recorded total protein half-life in vivo, one value per entry.

- seq_text: "MLTVKQIEAAKPKEKPYRLLDGNGLYLYVPVSGKKVWQLRYKIDGKEKILTVGKYPLMTLQEARDKAWTARKDISVGIDPVKAKKASSNNNSFSAIYKEWYEHKKQVWSVGYATELAKMFDDDILPIIGGLEIQDIEPMQLLEVIRRFEDRGAMERANKARRRCGEVFRYAIVTGRAKYNPAPDLADAMKGYRKKNFPFLPADQIPAFNKALATFSGSIVSLIATKVLRYTALRTKELRSMLWKNVDFENRIITIDASVMKGRKIHVVPMSDQVVELLTTLSSITKPVSEFVFAGRNDKKKPICENAVLLVIKQIGYEGLESGHGFRHEFSTIMNEHEWPADAIEVQLAHANGGSVRGIYNHAQYLDKRREMMQWWADWLDEKVE"
  total protein half-life in vivo (h): 5.79
- seq_text: "MWKRLLIVSAVSAAMSSMALAAPLTVGFSQVGSESGWRAAETNVAKSEAEKRGITLKIADGQQKQENQIKAVRSFVAQGVDAIFIAPVVATGWEPVLKEAKDAEIPVFLLDRSIDVKDKSLYMTTVTADNILEGKLIGDWLVKEVNGKPCNVVELQGTVGASVAIDRKKGFAEAIKNAPNIKIIRSQSGDFTRSKGKEVMESFIKAENNGKNICMVYAHNDDMVIGAIQAIKEAGLKPGKDILTGSIDGVPDIYKAMMDGEANASVELTPNMAGPAFDALEKYKKDGTMPEKLTLTKSTLYLPDTAKEELEKKKNMGY"
  total protein half-life in vivo (h): 5.64
- seq_text: "MRIGHGFDVHAFGGEGPIIIGGVRIPYEKGLLAHSDGDVALHALTDALLGAAALGDIGKLFPDTDPAFKGADSRELLREAWRRIQAKGYTLGNVDVTIIAQAPKMLPHIPQMRVFIAEDLGCHMDDVNVKATTTEKLGFTGRGEGIACEAVALLIKATK"
  total protein half-life in vivo (h): 4.63
